# PROTOCOL DETAILS: in vitro
# SETUP CONDITIONS: human
This section presents compounds with their documented CC50 values.
Kindly answer with a numeric value in µM, unit omitted.

INSERT INTO results (compound, result_number) VALUES
  ('CCN(CC)CCOc1ccc2c(c1)C(=O)c1cc(OCCN(CC)CC)ccc1-2', 6.5);

Q: Which CC50 is listed for CCN(CC)CCCC(C)Nc1c2ccc(Cl)cc2nc2ccc(OC)cc12 (centres unmarked) ?
Ans: 6.2

* * *

# PROTOCOL DETAILS: in vivo
# SETUP CONDITIONS: female, Hartley, guinea pig, po, 100 mg/kg, T1/2
TEST READOUT: half-life (h)
Kindly answer with a numeric value in h, unit omitted.

Q: Which half-life is listed for CCN(CC)CCOc1ccc2c(c1)C(=O)c1cc(OCCN(CC)CC)ccc1-2 [Tilorone] ?
Ans: 17.4

* * *

# PROTOCOL DETAILS: in vivo
# SETUP CONDITIONS: male, Hartley, guinea pig, po, 30 mg/kg, AUClast Mean
TEST READOUT: AUC(0-t) (ng·h/mL)
Kindly answer with a numeric value in ng·h/mL, unit omitted.

Q: Which AUC(0-t) is listed for CCN(CC)CCOc1ccc2c(c1)C(=O)c1cc(OCCN(CC)CC)ccc1-2 ?
Ans: 1020

* * *

# PROTOCOL DETAILS: in vitro
# SETUP CONDITIONS: African green monkey
TEST READOUT: CC50 (µM)
Kindly answer with a numeric value in µM, unit omitted.

Q: Which CC50 is listed for CCN(CC)CCCC(C)Nc1c2ccc(Cl)cc2nc2ccc(OC)cc12 (stereo not shown) [Quinacrine] ?
Ans: 15

* * *

# SETUP CONDITIONS: human, microsomes
TEST READOUT: t1/2

See these solved cases before continuing.
INSERT INTO measurements (compound, result) VALUES
  ('CCN(CC)CCCC(C)Nc1ccnc2cc(Cl)ccc12 (stereo not shown)', '3.357 h'),
  ('CCN(CC)CCCC(C)Nc1c2ccc(Cl)cc2nc2ccc(OC)cc12 (stereo not shown)', '0.458 h'),
  ('CCN(CC)CCOc1ccc2c(c1)C(=O)c1cc(OCCN(CC)CC)ccc1-2', '2.118 h');

Query compound follows.
Q: Which t1/2 is listed for COc1ccc2nc3cc(Cl)ccc3c(Nc3cc(CN4CCCC4)c(O)c(CN4CCCC4)c3)c2n1 ?
Ans: 2.037 h

* * *

This section presents compounds with their documented Dextromethorphan: compound, t1/2 normalized to dextromethorphan control values.
# SETUP CONDITIONS: mouse, microsomes

INSERT INTO measurements (compound, result) VALUES
  ('COc1ccc2nc3cc(Cl)ccc3c(Nc3cc(CN4CCCC4)c(O)c(CN4CCCC4)c3)c2n1', '>11.5'),
  ('CCN(CC)CCCC(C)Nc1c2ccc(Cl)cc2nc2ccc(OC)cc12 (stereo not shown)', 0.8),
  ('CCN(CC)CCCC(C)Nc1ccnc2cc(Cl)ccc12 (stereo not shown)', 2.7);

Q: Which Dextromethorphan: compound, t1/2 normalized to dextromethorphan control is listed for CCN(CC)CCOc1ccc2c(c1)C(=O)c1cc(OCCN(CC)CC)ccc1-2 ?
Ans: 6.3

* * *

# System: HepG2 2.2.15
# SETUP CONDITIONS: human
TEST READOUT: CC50 (µM)
Kindly answer with a numeric value in µM, unit omitted.

Q: Which CC50 is listed for COc1ccc2nc3cc(Cl)ccc3c(Nc3cc(CN4CCCC4)c(O)c(CN4CCCC4)c3)c2n1 [Pyronaridine] ?
Ans: 3.54

* * *

# PROTOCOL DETAILS: in vitro
# SETUP CONDITIONS: monkey, microsomes
This section presents compounds with their documented half-life values.
Answer with the figure and its unit, nothing else.

See these solved cases before continuing.
INSERT INTO results (compound, result) VALUES
  ('Cc1ncc2n1-c1ccc(Cl)cc1C(c1ccccc1F)=NC2', '4.3 min'),
  ('O=C(O)Cc1ccccc1Nc1c(Cl)cccc1Cl', '43.1 min'),
  ('COc1ccc2c(c1)[C@]13CCCC[C@@H]1[C@H](C2)N(C)CC3', '6.69 min');

Query compound follows.
Q: Which half-life is listed for COc1ccc2[nH]c([S+]([O-])Cc3ncc(C)c(OC)c3C)nc2c1 (stereo not shown) ?
Ans: 25.5 min

* * *

# PROTOCOL DETAILS: in vivo
# SETUP CONDITIONS: female, Hartley, guinea pig, po, 200 mg/kg, Tmax
TEST READOUT: Tmax (h)
Kindly answer with a numeric value in h, unit omitted.

Q: Which Tmax is listed for CCN(CC)CCOc1ccc2c(c1)C(=O)c1cc(OCCN(CC)CC)ccc1-2 ?
Ans: 1

* * *

# SETUP CONDITIONS: guinea pig, microsomes
TEST READOUT: t1/2

See these solved cases before continuing.
INSERT INTO measurements (compound, result) VALUES
  ('COc1ccc2nc3cc(Cl)ccc3c(Nc3cc(CN4CCCC4)c(O)c(CN4CCCC4)c3)c2n1 [Pyronaridine]', '66.1 min'),
  ('CCN(CC)CCOc1ccc2c(c1)C(=O)c1cc(OCCN(CC)CC)ccc1-2 [Tilorone]', '12.2 min'),
  ('CCN(CC)CCCC(C)Nc1ccnc2cc(Cl)ccc12 (stereo not shown) [Chloroquine]', '132.6 min');

Query compound follows.
Q: Which t1/2 is listed for CCN(CC)CCCC(C)Nc1c2ccc(Cl)cc2nc2ccc(OC)cc12 (stereo not shown) [Quinacrine] ?
Ans: 17.1 min

* * *

# PROTOCOL DETAILS: in vitro
# SETUP CONDITIONS: mouse
TEST READOUT: CC50

Q: Which CC50 is listed for COc1ccc2nc3cc(Cl)ccc3c(Nc3cc(CN4CCCC4)c(O)c(CN4CCCC4)c3)c2n1 [Pyronaridine] ?
Ans: > 40 µM

* * *

# PROTOCOL DETAILS: in vivo
# SETUP CONDITIONS: male, Hartley, guinea pig, po, 100 mg/kg, Cmax Mean
TEST READOUT: Cmax
Answer with the figure and its unit, nothing else.

Q: Which Cmax is listed for CCN(CC)CCOc1ccc2c(c1)C(=O)c1cc(OCCN(CC)CC)ccc1-2 ?
Ans: 225 ng/mL

* * *

# Tested on: Zika virus
# PROTOCOL DETAILS: microbe, parasite or virus in culture
# Assay type: cell-based
# SETUP CONDITIONS: Vero 76
TEST READOUT: pEC50
Interpret pEC50 as the negative base-10 log of the concentration measured in mol/L.

Q: I'm curious: which pEC50 was measured for COc1ccc2nc3cc(Cl)ccc3c(Nc3cc(CN4CCCC4)c(O)c(CN4CCCC4)c3)c2n1 tested on Zika virus?
Ans: 5.49

* * *

# System: SARS-CoV-2
# PROTOCOL DETAILS: microbe, parasite or virus in culture
# Type: cell-based
# SETUP CONDITIONS: Severe acute respiratory syndrome coronavirus 2, A549-ACE2, read-out: IC50 against SARS-CoV-2
This section presents molecules with their documented IC50 values.

INSERT INTO results (molecule, test_readout, result) VALUES
  ('CCN(CC)CCCC(C)Nc1c2ccc(Cl)cc2nc2ccc(OC)cc12 (stereo not shown)', 'IC50', '< 200 nM'),
  ('COc1ccc2nc3cc(Cl)ccc3c(Nc3cc(CN4CCCC4)c(O)c(CN4CCCC4)c3)c2n1', 'IC50', '< 200 nM'),
  ('CCC(CC)COC(=O)[C@H](C)N[P@](=O)(OC[C@H]1O[C@@](C#N)(c2ccc3c(N)ncnn23)[C@H](O)[C@@H]1O)Oc1ccccc1', 'IC50', '~147 nM');

Query molecule follows.
Q: Which IC50 is listed for CCN(CC)CCOc1ccc2c(c1)C(=O)c1cc(OCCN(CC)CC)ccc1-2 ?
Ans: < 200 nM

* * *

# PROTOCOL DETAILS: in vivo
# SETUP CONDITIONS: female, Hartley, guinea pig, po, 30 mg/kg, Cmax Mean
TEST READOUT: Cmax (µg/mL)
Kindly answer with a numeric value in µg/mL, unit omitted.

Q: Which Cmax is listed for CCN(CC)CCOc1ccc2c(c1)C(=O)c1cc(OCCN(CC)CC)ccc1-2 [Tilorone] ?
Ans: 0.246

* * *

# SETUP CONDITIONS: mouse, microsomes
TEST READOUT: Clint
Give a plain numeric answer without units written out.

INSERT INTO measurements (molecule, result_number) VALUES
  ('CCN(CC)CCCC(C)Nc1ccnc2cc(Cl)ccc12 (stereo not shown)', 29.3);

Q: Which Clint is listed for CCN(CC)CCOc1ccc2c(c1)C(=O)c1cc(OCCN(CC)CC)ccc1-2 ?
Ans: 13.5

Q: Which Clint is listed for CCN(CC)CCCC(C)Nc1c2ccc(Cl)cc2nc2ccc(OC)cc12 (stereo not shown) ?
Ans: 110.0

* * *

# Tested on: Venezuelian equine encephalitis virus
# PROTOCOL DETAILS: microbe, parasite or virus in culture
# Type: cell-based
# SETUP CONDITIONS: Venezuelan equine encephalitis virus, Vero 76
This section presents compounds with their documented pEC50 values.
Interpret pEC50 as the negative base-10 log of the concentration measured in mol/L.

See these solved cases before continuing.
INSERT INTO measurements (compound, result_number) VALUES
  ('CCN(CC)CCCC(C)Nc1c2ccc(Cl)cc2nc2ccc(OC)cc12 (stereo not drawn)', 5.40),
  ('CCN(CC)CCOc1ccc2c(c1)C(=O)c1cc(OCCN(CC)CC)ccc1-2', 4.74);

Query compound follows.
Q: Which pEC50 is listed for COc1ccc2nc3cc(Cl)ccc3c(Nc3cc(CN4CCCC4)c(O)c(CN4CCCC4)c3)c2n1 ?
Ans: 5.74
